For each record, write down the corresponding pKd.
- target.under.test: recombinant human GITR (Cat No. 13643-H08H, Lot No. LC12JA2509, Sino Biological) (human) (UniProt Q9Y5U5)
- measurement.description: SPR Biacore 8K, single-cycle kinetics, IgG in supernatant captured on Protein A, GITR as analyte
Give bare numbers, as −log10 of the molar value.

A selection of reference data follows.
{"columns": ["binder", "experimental.value"],
 "data": [
  ["anti-GITR 51B VH1/VL5 humanized antibody (human IgG1, kappa) (antibody, V domains shown) VH: QVQLVQSGAELKKPGASVKLSCKTTGYRFTGYWIEWVRQPPGKGLEWIGEILPGSGATYYSENFKGKATITADTSTNTAYMEVSSLRSGDSAIYYCARKGGYYAMDYWGQGTSVTVSS VL: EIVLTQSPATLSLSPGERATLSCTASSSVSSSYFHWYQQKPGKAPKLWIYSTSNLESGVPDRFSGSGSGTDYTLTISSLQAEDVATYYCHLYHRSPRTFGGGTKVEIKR", 8.85],
  ["anti-GITR 51B VH3/VL1 humanized antibody (human IgG1, kappa) (antibody, V domains shown) VH: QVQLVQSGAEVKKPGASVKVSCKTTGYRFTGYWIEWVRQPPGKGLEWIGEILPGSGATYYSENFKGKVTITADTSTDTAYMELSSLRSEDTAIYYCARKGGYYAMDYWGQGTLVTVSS VL: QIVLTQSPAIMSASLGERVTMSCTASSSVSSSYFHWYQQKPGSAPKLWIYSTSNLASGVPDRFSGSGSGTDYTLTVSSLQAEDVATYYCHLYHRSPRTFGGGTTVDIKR", 9.16]
]}

Ask: # pKd lookup, item anti-GITR 51B VH2/VL5 humanized antibody (human IgG1, kappa) (antibody, V domains shown) VH: QVQLVQSGAEVKKPGASVKLSCKTTGYRFTGYWIEWVRQPPGKGLEWIGEILPGSGATYYSENFKGKATITADTSTNTAYMEVSSLRSEDTAIYYCARKGGYYAMDYWGQGTLVTVSS VL: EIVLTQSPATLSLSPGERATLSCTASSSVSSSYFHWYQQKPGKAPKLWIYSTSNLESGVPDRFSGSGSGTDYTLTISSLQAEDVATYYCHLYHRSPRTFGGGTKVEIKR
Result: 8.88
